compounds and their reported Cholestérol estérifié Score (par rapport au clofibrate compté pour 1)
Test system: hyperlipidémie provoquée par l'administration de TRITON®
testProtocol: Triton test: hyperlipidemia induced by i.v. TRITON W.R. in fasted rats
Assay type: in vivo, rats WISTAR mâles
experimentalSetup: 250 mg/kg oral; ratio to clofibrate of the same series

COc1cc([N+](=O)[O-])c(Cl)cc1S(=O)(=O)NCCO [compound 281] : 0,13
COc1cc(N)c(Cl)cc1S(=O)(=O)NCC(C)O (stereo not drawn) [Composé n° 323] : 1,44

// next entry
Would you kindly share the measured Cholestérol estérifié Score (par rapport au clofibrate compté pour 1) for CCC(CO)NS(=O)(=O)c1cc(Br)ccc1OC (stereo not drawn) [Composé n° 645] ?
0,50

###

Attribute: Triglycérides Score (par rapport au clofibrate compté pour 1)
Tested on: hyperlipidémie provoquée par l'administration de TRITON®
testProtocol: Triton test: hyperlipidemia induced by i.v. TRITON W.R. in fasted rats
Format: in vivo, rats WISTAR mâles
experimentalSetup: 250 mg/kg oral; ratio to clofibrate of the same series
Description: Dans une première série d'expériences, des produits ont été testés sur une hyperlipidémie provoquée par l'administration de TRITON® selon le protocole suivant. Les essais ont été réalisés sur des groupes de cinq rats WISTAR mâles dont le poids varie de 150 à 175 g. Pour effectuer ces essais, on provoque une hyperlipidémie chez les animaux, au moyen du produit commercialisé par la Société ROHM and HAAS sous le nom de TRITON® W. R. […]

COc1ccc(Cl)cc1S(=O)(=O)NCCO : 0,48

// Triglycérides Score (par rapport au clofibrate compté pour 1) lookup, key: CCC(CO)NS(=O)(=O)c1cc(Br)ccc1OC (stereo not shown)
1,21

Need Triglycérides Score (par rapport au clofibrate compté pour 1) of "COc1ccc([N+](=O)[O-])cc1S(=O)(=O)NCCO" , thanks.
0,20

What does the record list as Triglycérides Score (par rapport au clofibrate compté pour 1) for "COc1cc([N+](=O)[O-])ccc1S(=O)(=O)NCCO" ?
0,38
